Cited source for all entries: patent US12077566B2

tested-target: EGFR extracellular domain (Homo sapiens, UniProt P00533)
experiment-summary: Affinity test by surface plasmon resonance (Biacore T200, CM5 chip)
Type: binding
stated-conditions: EGFR extracellular domain coupled on CM5 chip, analyte 4-256 nM
parameter-measured: Ka (M⁻¹ s⁻¹)
Numeric answer only, unit M⁻¹ s⁻¹ assumed.

Identify measured Ka corresponding to rLZ-8 (D70K): rLZ-8 mutant after surface potential optimization, D70K (protein) MSDTALIFRLAWDVKKLSFDYTPNWGRGNPNNFIDTVTFPKVLTDKAYTYRVAVSGRNLGVKPSYAVESKGSQKVNFLEYNSGYGIADTNTIQVFVVDPDTNNDFIIAQWN
203000

Please give the documented Ka of rLZ-8 (L17K/D70K): rLZ-8 mutant after surface potential optimization, L17K and D70K (protein) MSDTALIFRLAWDVKKKSFDYTPNWGRGNPNNFIDTVTFPKVLTDKAYTYRVAVSGRNLGVKPSYAVESKGSQKVNFLEYNSGYGIADTNTIQVFVVDPDTNNDFIIAQWN
215000

For rLZ-8 (K46E/K74E): rLZ-8 mutant K46E and K74E (protein) MSDTALIFRLAWDVKKLSFDYTPNWGRGNPNNFIDTVTFPKVLTDEAYTYRVAVSGRNLGVKPSYAVESDGSQEVNFLEYNSGYGIADTNTIQVFVVDPDTNNDFIIAQWN , write its Ka.
65700
